test system: A549; assay: Cytotoxicity against human A549 cells by MTT assay; assay type: functional, cell-based
Consider the following compounds; for each one, report its IC50.

Ask: Please tell me: IC50 of CCCC(=O)CC[C@H]1OC(=O)c2c1cc(OC)c(OC)c2O [COLLETOTRIALIDE] , system A549?
Reply: > 162 µM

Ask: API: value(readout= IC50, system= A549, query= CCC[C@H](O)C[C@@H]1Cc2cc(OC)c(OC)c(O)c2C(=O)O1 )
Reply: > 161 µM

Ask: Form field: IC50 recorded for CCC[C@H]1C[C@H]2OC(=O)c3c(cc(OC)c(O)c3O)[C@H]2O1 with A549 (enter value)
Reply: > 170 µM

Ask: Record CCC[C@H]1C[C@H]2OC(=O)c3c(cc(OC)c(OC)c3O)[C@H]2O1 : what is its IC50 with A549?
Reply: > 162 µM

Ask: Requested read-out IC50, target or system A549, entry COc1cccc2c1C(=O)c1c(O)c3c(c(O)c1C2=O)C[C@@](O)(C(=O)CO)C[C@@H]3O[C@H]1C[C@H](N)[C@H](O)[C@H](C)O1
Reply: 0.34 µM
